# System: Myzus persicae
# test details: Myzus persicae (green peach aphid) pea seedling root uptake test
# Type: in vivo
# measurement setup: Myzus persicae, 144 h; 24 ppm test solution, roots of infested pea seedlings; 6 days; mortality; read-out: control of Myzus persicae
property label: pest or weed control at 24 ppm (%)
Response body: numeric value in %, unit text excluded.

Value of measured pest or weed control at 24 ppm for the entry CCC(Oc1cccc(C(F)F)c1Cl)C1=NCCN1C(=O)OC(C)(C)C (centres unmarked) : 0

According to the records, this molecule CCCC(Oc1cccc(CF)c1Cl)C1=NCCN1 (centres unmarked) displays pest or weed control at 24 ppm of 80

pest or weed control at 24 ppm measured on CCCC(Oc1cccc(Br)c1Cl)C1=NCCN1 (centres unmarked) = 0

Documented pest or weed control at 24 ppm of CC(C)C(Oc1cccc(C(F)F)c1Cl)C1=NCCN1 (centres unmarked) : 80

The molecule listed as CC(Oc1cccc(C(F)F)c1Cl)C1=NCCN1 (centres unmarked) has a reported pest or weed control at 24 ppm of 0

====

Exercise: state measured pest or weed control at 24 ppm for each of the compounds provided.
# System: Myzus persicae
# test details: Myzus persicae (green peach aphid) pea seedling root uptake test
# Type: in vivo
# measurement setup: Myzus persicae, 144 h; 24 ppm test solution, roots of infested pea seedlings; 6 days; mortality; read-out: control of Myzus persicae
Reply with a number, then the unit it belongs to.

Value of measured pest or weed control at 24 ppm for the entry CCC(Oc1cccc(CF)c1Cl)C1=NCCN1 (stereo not drawn) [Compound 1.006] : 80%

// sample CCCCC(Oc1cccc(CF)c1Cl)C1=NCCN1 (stereo not drawn) [Compound 1.032] , its pest or weed control at 24 ppm was 50%

pest or weed control at 24 ppm recorded for this compound, CCCC(Oc1cccc(Br)c1Br)C1=NCCN1 (stereo not drawn) [Compound 1.021] , is 0%

The reported pest or weed control at 24 ppm of the compound CC(C)C(Oc1cccc(CF)c1Cl)C1=NCCN1 (stereo not drawn) [Compound 1.037] was 50%

// sample CCC(Oc1cccc(CO)c1Cl)C1=NCCN1 (stereo not drawn) [Compound 1.005] , its pest or weed control at 24 ppm was 0%

Entry CCCC(Oc1cccc(C(F)F)c1Cl)C1=NCCN1 (stereo not drawn) [Compound 1.028] ; pest or weed control at 24 ppm = 100%

Notebook: CCC(Oc1cccc(C#N)c1Cl)C1=NCCN1 (stereo not drawn) [Compound 1.024] , pest or weed control at 24 ppm read as 50%

The value of pest or weed control at 24 ppm measured for the compound CCC(Oc1cccc(C(F)(F)F)c1Cl)C1=NCCN1 (stereo not drawn) [Compound 1.001] turned out to be 100%

Entry CCCCC(Oc1cccc(C(F)(F)F)c1Cl)C1=NCCN1 (stereo not drawn) [Compound 1.027] ; pest or weed control at 24 ppm = 0%

GET /value?item= CC(Oc1cccc(C(F)(F)F)c1Cl)C1=NCCN1 (stereo not drawn) [Compound 1.014] &field=pest or weed control at 24 ppm returns 50%

Measured pest or weed control at 24 ppm, CC(C)C(Oc1cccc(C(F)(F)F)c1Cl)C1=NCCN1 (stereo not drawn) [Compound 1.016] : 80%

pest or weed control at 24 ppm recorded for this compound, CCCC(Oc1cccc(I)c1Cl)C1=NCCN1 (stereo not drawn) [Compound 1.033] , is 0%
